tested on: CRL-7250; experiment: Cytotoxic Profiling of Annotated Libraries Using Quantitative High-Throughput Screening (AID 1296008); settings: Five cell lines viability, CellTiter-Glo ATP luminescence, 48-72 h; note: nearly all actives have a fitted effect of over 60% in size
Records with an inconclusive call do not appear. Activity calls are given as the source filed them. Calls come from the whole dose curve; as a rule, active = well fitted inhibition curve with a large enough effect; inconclusive = small, poorly fitted or top-dose-only effect; inactive = flat fitted curve, though single readings scatter.
// one of active, inactive, no free text

Query block: What was the test verdict on "CC1=NN=C(c2ccc(N)cc2)c2cc3c(cc2C1)OCO3" ?
Result block: inactive

Query block: What was the test verdict on COc1cc([C@@H]2c3cc4c(cc3[C@@H](O)C3COC(=O)C32)OCO4)cc(OC)c1O (stereo not given in full) ?
Result block: active

Query block: What was the test verdict on "CC(=O)OCC1=C(C(=O)O)N2C(=O)[C@@H](N)[C@@H]2SC1" ?
Result block: inactive

Query block: What was the test verdict on CC(C)(C)C(O)C(Oc1ccc(Cl)cc1)n1cncn1 (stereo not given) ?
Result block: inactive

Query block: What was the test verdict on "Cc1ccccc1-n1c(Cn2ncc3c(N)ncnc32)nc2cccc(C)c2c1=O" ?
Result block: inactive

New cases:
Query block: What was the test verdict on "O=c1[nH]c2ccccc2n1C1CCN(Cc2ccc(-c3[nH]c4cc5ncnc5cc4nc3-c3ccccc3)cc2)CC1" ?
Result block: inactive

Query block: What was the test verdict on C=C[C@@H]1CN2CCC1C[C@H]2[C@H](O)c1ccnc2ccccc12 (stereo not given in full) ?
Result block: inactive

Query block: What was the test verdict on "CC(=O)N(C)c1cccc(-c2ccnc3c(C(=O)c4cccs4)cnn23)c1" ?
Result block: inactive

Query block: What was the test verdict on "COC1=C[C@@H]2[C@@H]3Cc4ccc(OC)c(O)c4[C@]2(CCN3C)CC1=O" ?
Result block: inactive

Query block: What was the test verdict on Cc1c(N)nc([C@H](CC(N)=O)NC[C@@H](N)C(N)=O)nc1C(=O)N[C@H](C(=O)N[C@@H](C)[C@H](O)[C@@H](C)C(=O)N[C@@H](C(=O)NCCc1nc(-c2nc(C(=O)NCCC[S+](C)C)cs2)cs1)[C@@H](C)O)C(O[C@H]1O[C@H](CO)[C@H](O)[C@@H](O)[C@@H]1O[C@H]1O[C@H](CO)[C@@H](O)[C@H](OC(N)=O)[C@H]1O)c1cnc[nH]1 (stereo not given in full) ?
Result block: active

// provenance: PubChem BioAssay (NCATS)
